System: NCI-H226 lung
Assay: NCI-60 one-dose screen, 48 h (100 = growth as untreated, 0 = no growth, -100 = all killed)
Conditions: 10 µM unless noted
Compounds without any hit were thinned out: in the full panel of roughly 83,000, 20% have a hit.
Quantity kind: growth (%)
One number for each entry, in %.

// known answers, use as guide
OC1CCN(CCCOc2c3ccc(Cl)cc3nc3c2oc2ccc(Cl)cc23)CC1 : 2.57
C#Cc1nc(C2=C(C)C(OC(=O)CCC(=O)O)CC2)cs1 (stereo not given) : 106
CN(C)CCCOc1c2ccc(Cl)cc2nc2c1oc1ccc(Cl)cc12 : 1.15
CS(=O)(=O)c1ccc(-n2cc(/C=C/C(=O)c3ccc(NC(=O)CO[N+](=O)[O-])cc3)c(-c3ccc(Cl)cc3)n2)cc1 : 72.2
O=[N+]([O-])c1ccc(O)c2ncccc12 : 48.7

Record growth per entry; entries follow.
1. C/C(=C(/c1ccc(Cl)cc1)c1ccc(OCCN)cc1)c1ccc(C)cc1
2. Fc1ccc(-c2nc(C(Cl)Cl)nc3cc(-c4ccccc4)nn23)cc1
3. O=C(CN1C(=O)/C(=C/c2ccccc2)SC1=S)N1CCOCC1
4. COc1cc(OC)c(S(=O)(=O)NNC(=O)c2ccncc2)cc1C(=O)/C=C/c1ccc(C)cc1
5. O=C(CCCN1C(=O)/C(=C/c2ccccc2F)SC1=S)N1CCOCC1

Response given:
1: 112; 2: 74.7; 3: 105; 4: 89.5; 5: 110

###

System: SF-539 CNS
Experiment: NCI-60 one-dose screen, 48 h
Conditions: 10 µM unless noted
This is part of a sample that, as a whole, favours compounds with a hit. Of some 83,000 tested, about 20% had one in any assay. The source made the active and inactive calls. The calls were made as follows: active = growth percent below 10; inactive = the rest.
One label from this list, please: 1 for active, 0 for inactive

// known answers, use as guide
N#Cc1ccc(C(=O)CSc2nc(Nc3ccc(S(N)(=O)=O)cc3)c3ccccc3n2)cc1 : 0
N#Cc1nc(-c2ccccc2)oc1S(N)(=O)=O : 0
Fc1ccc(-c2cc3nc(C(Cl)Cl)nc(-c4ccccc4)n3n2)cc1 : 1
Clc1ccc2oc3c(NCCCN4CCOCC4)c4ccccc4nc3c2c1 : 0
COc1cc2nc(-c3ccc(C)cc3)cc(OCCCNCC3CCCO3)c2cc1OC (stereo not given) : 0

Challenge: # outcome recorded in this test, key = CCOC(=O)c1c(NC(=O)c2cccc(C(F)(F)F)c2)sc2cc(O)ccc12
Response given: 0

Challenge: # outcome recorded in this test, key = O=c1/c(=C\c2ccc(-c3ccccc3)o2)sc2nc(-c3ccccc3)nn12
Response given: 0

Challenge: # outcome recorded in this test, key = CN(C)c1ccc(/C=c2\sc3nc4ccccc4n3c2=O)cc1
Response given: 0

Challenge: # outcome recorded in this test, key = C[C@@H]1CN(c2ccc3ncc(C#Cc4cncc(C(=O)Nc5ccc(CN6CCN(C)CC6)c(C(F)(F)F)c5)c4)n3n2)C[C@H](C)O1
Response given: 1

Challenge: # outcome recorded in this test, key = CC1=C(C)C(=O)C(Nc2cccc(C(F)(F)F)c2)=C(Cl)C1=O
Response given: 0

Challenge: # outcome recorded in this test, key = Cc1[nH]nc2ncc(C#Cc3cncc(C(=O)Nc4ccc(CN5CCN(C)CC5)c(C(F)(F)F)c4)c3)cc12
Response given: 1

Challenge: # outcome recorded in this test, key = CCCCCCNC(=O)Oc1ccc(/C(=C(/C)c2ccccc2)c2ccc(OCCN3CCCCCC3)cc2)cc1
Response given: 0

Challenge: # outcome recorded in this test, key = Cn1c(SCC(=O)c2cccs2)nc2ccccc2c1=O
Response given: 0

###

Test system: LOX IMVI melanoma
Assay: NCI-60 one-dose screen, 48 h (100 = growth as untreated, 0 = no growth, -100 = all killed)
Details: 10 µM unless noted
This is part of a sample that, as a whole, favours compounds with a hit. Of some 83,000 tested, about 20% had one in any assay.
Quantity kind: growth (%)
One number for each entry, in %.

CC(=O)Nc1cc(F)cc(-c2ccc3[nH]cc(-c4ccccc4)c3n2)c1 : -62.4

Record growth per entry; entries follow.
1. Nc1ncc(-c2ccc3ncnc(N4CCc5cc(F)c(Cl)cc54)c3c2)cc1CO
2. CC(=O)c1ccc(Nc2nc(SC(C)C)nc(-c3ccccc3)c2C#N)cc1
3. CC(=O)Oc1ccccc1C(=O)Nc1ccc(C(=O)/C=C/c2cccs2)cc1
4. CC(C)(C)Nc1nc2c(OCCc3ccccc3)cccn2c1-c1ccc(Cl)cc1
5. N#Cc1c(-c2ccc(Cl)cc2)nc(SCc2ccc(F)cc2)nc1N1CCNCC1
6. COc1ccc(-c2csc(N/N=C/c3c(-c4ccc(S(C)(=O)=O)cc4)nc4ccccn34)n2)cc1
7. O=C1c2c(c3c4cccnc4[nH]c3c3ccc4ccccc4c23)C(=O)N1CCO
8. Clc1ccc2oc3c(NCCCn4ccnc4)c4ccccc4nc3c2c1

Response given:
7.2
95.1
100
2.87
-59.2
126
51.7
-72.1

Challenge: Give the value of growth reported for the following: O=C(O)CCCCCN1C(=O)/C(=C/c2ccc(O)c(O)c2)SC1=S
Response given: 108

###

System: NCI-H226 lung
Test: NCI-60 one-dose screen, 48 h (100 = growth as untreated, 0 = no growth, -100 = all killed)
Settings: 10 µM unless noted
Compounds without any hit were thinned out: in the full panel of roughly 83,000, 20% have a hit.
Quantity kind: growth (%)
Numbers only, in %.

O=C1/C(=C/C2=Cc3ccccc3OC2)SC(=S)N1c1ccc(F)cc1 : 103
COc1cc(/C=C/C(=O)c2ccc(C)cc2)ccc1Oc1nc(NCCO)nc(N2CCOCC2)n1 : 52
CN(C)CCCOc1c2ccccc2nc2c1oc1ccc(Cl)cc12 : -6.99
CS(=O)(=O)c1ccc(-c2nc3ccccn3c2-c2nc3ccc([N+](=O)[O-])cc3[nH]2)cc1 : 92.2
Cc1ccc(/C=C/c2nn3c(-c4ccco4)nnc3s2)cc1C : 106

Record growth per entry; entries follow.
1. O=c1/c(=C\c2ccc(-c3ccccc3)o2)sc2nc(-c3ccccc3)nn12
2. CC(=NNc1ncnc2ccccc12)c1ccc(S(C)(=O)=O)cc1
3. Cc1ccc2c(n1)C(=O)C(Cl)=C(Nc1cccc(C(C)C)c1)C2=O
4. COC(=O)C1CCCN(S(=O)(=O)/N=C2\NC(=O)NC2=C(Cl)Cl)C1 (configuration not stated)
5. Nc1c(C(=O)Nc2ccc(C(F)(F)F)cc2)sc2nc(-c3cnccn3)cc(-c3cccs3)c12
6. CC(=O)Oc1ccccc1C(=O)Nc1cc(C(C)C)ccc1C
7. CS(=O)(=O)c1ccc(-c2nc3ccccn3c2C=Nc2ccc(Cl)cc2)cc1
8. O=C1[C@H]2Cc3c([nH]c4ccccc34)[C@@H](c3ccc(Br)cc3)N2C(=O)CN1C1CCN(Cc2ccccc2)CC1

Response given:
1. 109
2. 96.8
3. 35.4
4. 105
5. 6.24
6. 9.84
7. 102
8. 39.5

Record growth per entry; entries follow.
1. O=C(CCN1C(=O)/C(=C/c2ccccc2)SC1=S)N1CCOCC1
2. Cc1cc(=O)oc2cc(OCCCOc3ccc(/C=C/C(=O)Nc4ccc(Cl)cc4)cc3)ccc12
3. O=C(N/N=C/c1ccc([N+](=O)[O-])o1)c1[nH]c2ccc(Br)cc2c1-c1ccccc1
4. O=c1[nH]c2ccc(Cl)cc2cc1CSc1ccccc1Nc1nccc(-c2ccc(Cl)cc2)n1

Response given:
1: 104; 2: 79.5; 3: 15.8; 4: 115

###

Test system: IGROV1 ovarian
Assay: NCI-60 one-dose screen, 48 h (100 = growth as untreated, 0 = no growth, -100 = all killed)
Conditions: 10 µM unless noted
The panel holds about 83,000 compounds, 20% with a hit somewhere; the sample as a whole holds those more often.
Quantity kind: growth (%)
Numbers only, in %.

// known answers, use as guide
COc1ccccc1C(=O)CSc1nc(Nc2ccc(S(N)(=O)=O)cc2)c2ccccc2n1 : 95.5
C#Cc1nc(C2=C(C)C(O)CC2)cs1 (stereo not given) : 5.36
Cn1cc(-c2cc(N)n3nc(-c4cn(C)c5ccc(Cl)cc45)cc3n2)c2cc(Cl)ccc21 : 88.9

Record growth per entry; entries follow.
1. CCCC(=O)NC(c1cccnc1)c1cc(C)c2cccnc2c1O (stereo not given)
2. CC(=O)Oc1ccccc1C(=O)Nc1cc(C(C)C)ccc1C
3. COc1cc(OC)c(S(=O)(=O)NNC(=O)c2ccncc2)cc1C(=O)/C=C/c1ccc(C)cc1
4. COc1ccc2[nH]cc(-c3cc(N)n4nc(-c5c[nH]c6ccc(OC)cc56)cc4n3)c2c1

Response given:
[30.6, 25.5, 72.7, 44.5]

###

Consider the following compounds; for each one, report its growth.
Test system: MOLT-4 leukemia
Assay: NCI-60 one-dose screen, 48 h (100 = growth as untreated, 0 = no growth, -100 = all killed)
Conditions: 10 µM unless noted
The panel holds about 83,000 compounds, 20% with a hit somewhere; the sample as a whole holds those more often.
Answers are plain numbers, in %.

// known answers, use as guide
OC1CCN(CCCOc2c3ccc(Cl)cc3nc3c2oc2ccc(Cl)cc23)CC1 : 0.17
COc1ccc(C(=O)/C=C/c2ccc(OCc3ccc(Cl)cc3)c(OC)c2)cc1OC : 38.6

Record growth per entry; entries follow.
1. Cc1ccccc1NC(=O)/C=C/c1ccc(OCCOc2ccc3c(C)cc(=O)oc3c2)cc1
2. CC(C)(C)Nc1nc2c(OCCc3ccccc3)cccn2c1-c1ccc(O)cc1
3. CCOC(=O)c1c(Nc2ccccc2)nn2c(N)c(C#N)c(-c3ccc(Cl)cc3)nc12

Response given:
93.2
22.7
87.5
